# assay: yeast display, Sf9 membrane polyspecificity reagent, FACS + sequencing; frameworks hold sequencing errors
reported metric: polyreactivity (PSR sort gate)

sequence text | value observed
QVQLVESGGGLVQAGGSLRLSCAASGSILYYYAMGWYRQAPGKERELVAAISWSGASTYYADSVKGRFTISRDNAKNTVYLQMNSLKPEDTAVYDCATSYTKQGFRYYYWGQGTQVTVSS | high polyreactivity
QVQLVESGGGIVQAGGSLRLSCAGSGIIFWYYAMGWYRQAPGKERELVAAISQSGGRTYYADSVKGRFTISRDNAKNTVYLQMNSLKPEDTAVYYCAAGLVYRWSTTPRRLYYYWGQGTQVTVSS | high polyreactivity
QVQLVESGGGLVQAGGSLRLICAASGSTFSYYTIGWYRTAPGKEMELVATISRRGASTYYADSVKGRFTISLDNAKNTVYLQMNSLKPEDTAVYYCAKSYYYGRSATRPEYDYWGQGTQVTVSS | high polyreactivity
QVQLVESGGGLVQAGGSLRLSCAASGRIYWNTMGWYRQAPWKEREMVASISTGCGRTYYADSVKGRFTISRDNAKNTVYLQMHSLKPEDTSVYYCNAVRTVWYRYEYGYWGQGTQVTVSS | high polyreactivity

---

# assay: yeast display, Sf9 membrane polyspecificity reagent, FACS + sequencing; frameworks hold sequencing errors
reported metric: polyreactivity (PSR sort gate)

sequence text | polyreactivity (PSR sort gate)
PVQLVESGGGLVQAGGSHRLSCAASGITFGVYPMGWYRQAAGKERELVAAISRRGASTYYADSVKGRFTISRDKAKNSVYLQMNSLKPEDTAVYYCAAYLARRQYDYWGQGTQVTVSS | high polyreactivity
QVQLVESGGGLVQAGGSLRLSCAASGFTFNKYAMGWYRQAPGKERELVAAISSSGGSTRYADSVKGRFTISRDNAKNTVYLQMNSLKPEDTAVYYCAVYVTRDSGWWLYDYWGQGTQVTVSS | high polyreactivity
QVQLVESGGGLVQAGGSLRLSCAASGLTFGVNAMGWSRQAPGKERELVAAISGSGGRTNYADSVKGRFTISRDNAKNTVYLQMNSLKPEDTAVYYCNARFPDWALSEISHSTTYGYWGQGTQVTVSS | low polyreactivity
QVQLVESGGGIVQSGGSLGLSCAASGYTFRTNVMGWYRQAPGKERELVATINWRGGSTYYADSVKGRFTISRDTAKNTVYLQMNSLKPEDTAVYYCAKTYSYYRTMDYWGQGTQVTGSS | low polyreactivity

Query :: Data request, read-out polyreactivity (PSR sort gate), for `QVQLVESGGGLVQAGGSLRLSCAASGSTFKSYTMGWYRQAPGKERELVAAISGSGGRTYYADSVKGRFTISRDNAKNTVYLQMNSLKPEDTAVYYCAATGPYGFYWGQGTQVTVSS`
Result :: high polyreactivity

Query :: Endpoint output: polyreactivity (PSR sort gate) of `QVQLVESGGGLVQAGGSLRLSCAASGITFGSYAMGWYRQAPGKERELVAAITSGGGTNYADSVKGRFTISRDNAKNTVYLQMNSLKPEDTAVYYCAARYYYLGTRYGYWGQGTQVTVSS` . Value?
Result :: low polyreactivity

Query :: Look up polyreactivity (PSR sort gate): `QVQLVESGGGLVQAGGSLRLSCAASGSTLYFNAMGWYRQAPGKERELVATITSGGSTYYADSVKGRFTISRDNAKNTVYFQMNSLKPEDTAAYYCNADFGSYATNGLTPLYDYWGQGTQVTVSS`
Result :: high polyreactivity

Query :: Which polyreactivity (PSR sort gate) is reported for this sequence? `QVQLVESGGGLVQAGGSLRLSCAASGRIFFWYARGWYRQAPGKEWELVAGITSGGSTNYADSVKGRFTISRDNAKNTVYLQMNSLKPEDTAVYYCAKRSYRTHTYDYWGQGTQVTVSS`
Result :: low polyreactivity

Query :: Fill in: polyreactivity (PSR sort gate) of `QVQLVESGGGLVQAGGSLRLSCAASGSTFYKNAMGWYRQAPGKERELVAVINASGDSTYYADSVKGRFTISRDNAKNTVYLQMNSLKPEDTAVYYCAADHRGEYDYWGQGTQVTVSS` is ___
Result :: low polyreactivity

Query :: Given `QVQLVESGGGLVQAGGSLRLSCAASGSIFIPYAMGWYRQAPGKERELVAAISRRGGSTYYADSVKGRFTISRDNAKNTVYLQMNSLKPEDTAVYYCNKDVNAYGYFEYYYWGQGTQVTVSS` , state its recorded polyreactivity (PSR sort gate).
Result :: low polyreactivity

Query :: Any idea what its polyreactivity (PSR sort gate) is? The sequence is `QVQLVESGGGLVQAGGSLRLSCAASGSIVNYYAMGWYRQAPGKERELVAAITWSGGRTYSADSVKGRFTSSRDNAKNTVYLQMNSLKPEDTAVYYCATAPVRIRDILFSPRMDYWGLGTQVTVSS`
Result :: low polyreactivity
